# Tested on: Vero monkey kidney cells
# assay-name: Vero cell cytotoxicity (MTT assay)
# Assay type: cell-based
# settings: Primates
Each item that follows carries a reported log10(IC50).
measurement-label: log10(IC50) (log10 of the value in µM)

molecule | log10(IC50)
COc1ccc(C(=O)/C=C/c2cccc([N+](=O)[O-])c2)c(OC)c1 [24DMP-3NO] | 0.73
COc1cc(OC)c(C(=O)/C=C/c2c3ccccc3cc3ccccc23)c(OC)c1 [246TMP-Anth] | 1.29
COc1cc(OC)c(C(=O)/C=C/c2cccc(S(F)(F)(F)(F)F)c2)c(OC)c1 [246TMP-3SF5] | 0.08
COc1ccc(C(=O)/C=C/c2c3ccccc3cc3ccccc23)c(OC)c1 [24DMP-Anth] | 1.35
COc1ccccc1C(=O)/C=C/c1c2ccccc2cc2ccccc12 [2MeO-Anth] | 1.36

Value source: paper PMC11768771
